# target.or.test.system: Replicative DNA helicase DnaB (Mycobacterium tuberculosis, UniProt P9WMR3)
# Sequence (P9WMR3 1-399, added parts left off): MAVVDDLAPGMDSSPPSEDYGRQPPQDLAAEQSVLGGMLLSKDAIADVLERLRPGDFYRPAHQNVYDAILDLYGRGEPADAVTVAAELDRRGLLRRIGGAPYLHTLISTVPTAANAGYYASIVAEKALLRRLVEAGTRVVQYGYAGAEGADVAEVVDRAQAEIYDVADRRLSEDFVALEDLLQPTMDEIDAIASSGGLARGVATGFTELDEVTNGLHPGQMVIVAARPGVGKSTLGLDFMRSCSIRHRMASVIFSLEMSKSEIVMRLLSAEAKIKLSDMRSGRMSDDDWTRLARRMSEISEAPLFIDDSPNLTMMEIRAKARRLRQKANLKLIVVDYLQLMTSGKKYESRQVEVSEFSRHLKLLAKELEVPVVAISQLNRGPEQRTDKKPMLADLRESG
# test.summary: DnaB intein splicing inhibitors, dose response, biochemical, cell-free fluorescence (AID 449749)
# Type: functional
Activity calls are given as the source filed them.
Labels: t = active, f = inactive

>>> class_name("Cc1[nH][nH]c(=O)c1C(c1ccc(N(C)C)c(Br)c1)c1c(C)[nH][nH]c1=O")
"t"
>>> class_name("Nn1cnnc1N/N=C/c1ccc(Cl)c([N+](=O)[O-])c1")
"t"
>>> class_name("CC1=NN(c2nc(-c3ccccc3)cs2)C(=O)C1")
"t"
>>> class_name("COc1ccc(NC(=O)/C(C#N)=C/c2ncc([N+](=O)[O-])n2C)c(OC)c1")
"t"
>>> class_name("CN1C=C/C(=C\\c2cc[n+](C)c3ccccc23)c2ccccc21")
"t"
>>> class_name("C=CCSC(=C(C#N)C#N)c1cc2c([nH]1)CCCC2")
"f"
>>> class_name("CCc1ccccc1N1C(=O)C(Cl)=C(N2CCOCC2)C1=O")
"t"

---

# target.or.test.system: DNA dC->dU-editing enzyme APOBEC-3A (Homo sapiens, UniProt P31941)
# Sequence (P31941 whole entry): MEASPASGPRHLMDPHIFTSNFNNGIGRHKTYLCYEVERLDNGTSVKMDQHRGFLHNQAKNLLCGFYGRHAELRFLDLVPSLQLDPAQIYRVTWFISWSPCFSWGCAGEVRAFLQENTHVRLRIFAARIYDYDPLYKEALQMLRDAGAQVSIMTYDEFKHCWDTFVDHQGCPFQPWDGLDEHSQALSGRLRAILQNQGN
# test.summary: Dose Response confirmation of small molecule APOBEC3A DNA Deaminase Inhibitors via a fluorescence-based single-stranded DNA deaminase assay. [Related pubchem assays (depositor defined):AID493011, AID493024]
# Format: functional
Active and inactive are the calls of the source.
# key: entry, value: IC50
property.measured: IC50

>>> endpoint_value("CN(Cc1ccccc1)C(=O)c1ncn(C)c1C(=O)N(C)Cc1ccccc1")
"3.15 µM (active)"
>>> endpoint_value("CCN1C(NCCOC)=N[C@@H](c2ccccc2)[C@H](C(=O)OC)[C@H]1C")
"4.47 µM (active)"
>>> endpoint_value("CC(=O)Nc1ccc(Nc2cc(C)nc(Nc3ccc(NC(C)=O)cc3)n2)cc1")
"11 µM (active)"
